Consider the following binders; for each one, report its log2 enrichment.
# assay-target: SHP2 N-SH2 domain T42A
# experimental-protocol: log2 enrichment relative to wild-type ITIM peptide; higher = stronger binding

[[record]]
binder = "VFSVDYGELVF [PD-1 ITIM pTyr223 peptide variant D227V]"
result = -0.565


Look up log2 enrichment for the entries below, preserving their order.
1. VFSVAYGELDF [PD-1 ITIM pTyr223 peptide variant D222A]
2. VFHVDYGELDF [PD-1 ITIM pTyr223 peptide variant S220H]
3. VFSDDYGELDF [PD-1 ITIM pTyr223 peptide variant V221D]
4. VFSVHYGELDF [PD-1 ITIM pTyr223 peptide variant D222H]
5. VFSVDYGELGF [PD-1 ITIM pTyr223 peptide variant D227G]
6. MFSVDYGELDF [PD-1 ITIM pTyr223 peptide variant V218M]

1. 1.52
2. 0.0672
3. -1.38
4. 1.68
5. -1.31
6. 0.0157

Find the recorded log2 enrichment belonging to AFSVDYGELDF [PD-1 ITIM pTyr223 peptide variant V218A] and report it.
0.0307
